Provide the reported IC50 of each item.
# target.or.system: ligand binding domain of human ROR gamma (Homo sapiens, UniProt P51449)
# Construct: NM_001001523; expressed in transfected cells; host or cells: HEK293T
# Sequence (P51449 268-518): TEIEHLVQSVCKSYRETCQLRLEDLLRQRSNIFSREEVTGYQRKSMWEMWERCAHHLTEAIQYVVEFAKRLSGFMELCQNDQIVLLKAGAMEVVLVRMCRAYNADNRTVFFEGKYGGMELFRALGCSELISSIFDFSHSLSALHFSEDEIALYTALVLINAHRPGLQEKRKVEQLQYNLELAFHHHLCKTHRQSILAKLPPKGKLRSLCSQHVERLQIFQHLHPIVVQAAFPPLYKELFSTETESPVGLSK
# protocol.text: ROR gamma reporter gene assay (GAL4-RORγ LBD luciferase, Dual-Glo)
# Format: cell-based
# experimental.parameters: HEK293T cells transfected with pM-ROR gamma, 8 concentrations 3.5 nM to 10.5 μM, 24 h incubation; read-out: result (pIC50, inhibition of RORγ transcriptional activity) (converted)
Answers are plain numbers, in pM.

compound	target.or.system	unit.info	IC50
O=C(CN(Cc1ccc(F)cc1)C(=O)c1cnn(C23CCC(C(=O)O)(CC2)C3)c1C(F)(F)F)c1c(Cl)cncc1Cl	ligand binding domain of human ROR gamma (Homo sapiens, UniProt P51449)	pM	141000
CC(C)(C)CN(CC(=O)c1c(Cl)cncc1Cl)C(=O)c1cnn([C@H]2CC[C@](C)(C(=O)O)CC2)c1C(F)(F)F	ligand binding domain of human ROR gamma (Homo sapiens, UniProt P51449)	pM	26900
CC1(C)[C@@H]2C[C@H](N(CCc3n[nH]c4cccc(Cl)c34)C(=O)c3cnn([C@H]4CC[C@](C)(C(=O)O)CC4)c3C(F)(F)F)C[C@@H]21	ligand binding domain of human ROR gamma (Homo sapiens, UniProt P51449)	pM	309000
CC(C)(C)OCCN(CC(=O)c1c(Cl)cc(C(F)(F)F)cc1Cl)C(=O)c1cnn([C@H]2CC[C@H](C(=O)O)CC2)c1C(F)(F)F	ligand binding domain of human ROR gamma (Homo sapiens, UniProt P51449)	pM	87100
CC1(C)[C@@H]2C[C@H](N(CC(=O)c3c(Cl)cccc3C(F)(F)F)C(=O)c3cnn(C45CCC(C(=O)O)(CC4)CC5)c3C(F)(F)F)C[C@@H]21	ligand binding domain of human ROR gamma (Homo sapiens, UniProt P51449)	pM	32400

Parameters: items (list). Returns: IC50 for each item.
1. O=C(CN(CC1(F)CCCC1)C(=O)c1cnn(C23CCC(C(=O)O)(CC2)CC3)c1C(F)(F)F)c1c(Cl)cc(Cl)cc1Cl
2. Cc1c(C(=O)N(CC(=O)c2c(Cl)cncc2Cl)Cc2cc(F)cc(F)c2)cnn1[C@H]1CC[C@H](C(=O)O)CC1
3. CC1(C)CCC(CN(CC(=O)c2c(Cl)cncc2Cl)C(=O)c2cnn([C@H]3CC[C@H](C(=O)O)CC3)c2C(F)(F)F)CO1 (some centres unmarked)
4. O=C(CN(Cc1ccc(F)cc1)C(=O)c1cnn([C@H]2CC[C@@](O)(C(=O)O)CC2)c1C(F)(F)F)c1c(Cl)cncc1Cl
5. O=C(CN(Cc1cc(F)cc(F)c1)C(=O)c1cnn([C@H]2CC[C@H](C(=O)O)CC2)c1C(F)(F)F)c1c(F)cc(F)cc1Cl
6. CC(C)(F)CN(CC(=O)c1c(Cl)cncc1Cl)C(=O)c1cnn([C@H]2CC[C@](C)(C(=O)O)CC2)c1C(F)(F)F
7. CC(C)(C)CN(CC(=O)c1c(Cl)cccc1OC(F)F)C(=O)c1cnn([C@H]2CC[C@](C)(C(=O)O)CC2)c1C(F)(F)F

Marked response:
[12900, "1.17e+06", 174000, 380000, 52500, 102000, 50100]

Parameters: items (list). Returns: IC50 for each item.
1. O=C(CN(Cc1cc(F)cc(F)c1)C(=O)c1cnn([C@H]2CC[C@H](C(=O)O)CC2)c1C(F)(F)F)c1ccc(F)cc1Cl
2. C[C@]1(C(=O)O)CC[C@H](n2ncc(C(=O)N(CC(=O)c3c(Cl)cc(F)cc3Cl)CC3CC4(CC4)C3)c2C(F)(F)F)CC1
3. C[C@H](N(CC(=O)c1c(Cl)cncc1Cl)C(=O)c1cnn([C@H]2CC[C@H](C(=O)O)CC2)c1C(F)(F)F)C(C)(C)C

Marked response:
200000
7940
2.29e+06

Values from patent US9365522B2
